Items are presented alongside their recorded Efficacy.
- System: Puccinia triticina
- measurement-protocol: In vivo preventive test on Puccinia triticina (wheat)
- particulars: Table K, 500 ppm of active ingredient, evaluated 8 days after inoculation
recorded-endpoint: Efficacy (%)

In [3]: df
Out[3]:
                                    molecule         measured_on  experimental_value
 0  CCCCC1CCCCC1NC(=O)c1c(C(F)F)nn(C)c1F (single isomer, unassigned) [Example 330]  Puccinia triticina                  80
 1  Cn1nc(C(F)F)c(C(=O)N(C2CC2)C2CCCC(c3ccccc3)C2)c1F (stereo not drawn) [Example 256]  Puccinia triticina                  95
 2  CCCCC1CCCCC1NC(=O)c1c(C(F)F)nn(C)c1Cl (stereo not drawn) [Example 331]  Puccinia triticina                  90
 3  CON(C(=O)c1c(C(F)F)nn(C)c1F)C(C)CCc1c(Cl)cc(Cl)cc1Cl (stereo not drawn) [Example 217]  Puccinia triticina                  89
 4  CC(CCc1ccccc1C(F)(F)F)N(C(=O)c1c(C(F)F)nn(C)c1Cl)C1CC1 (stereo not drawn) [Example 220]  Puccinia triticina                  90
 5  CC(C)CC(C)C1CCCC1NC(=O)c1c(C(F)F)nn(C)c1Cl (single isomer, unassigned) [Example 312]  Puccinia triticina                 100
 6  CC(CCc1c(Cl)cc(Cl)cc1Cl)N(C(=O)c1c(C(F)F)nn(C)c1F)C1CC1 (stereo not drawn) [Example 213]  Puccinia triticina                  90
 7  CCCCC1CCCCC1NC(=O)c1c(C(F)F)nn(C)c1F (single isomer, unassigned) [Example 329]  Puccinia triticina                 100
 8  CC(C)CC(C)C1CCCCC1NC(=O)c1c(C(F)F)nn(C)c1F (single isomer, unassigned) [Example 337]  Puccinia triticina                  70
 9  CC(CCc1c(Cl)cccc1Cl)NC(=O)c1c(C(F)F)nn(C)c1F (stereo not drawn) [Example 163]  Puccinia triticina                  80
10  CC1CC(N(C(=O)c2c(C(F)F)nn(C)c2F)C2CC2)CC(C)(C)C1 (stereo not drawn) [Example 322]  Puccinia triticina                  95
11  Cn1nc(C(F)F)c(C(=O)NC2CCCCC2C2CCCCC2)c1F (stereo not drawn) [Example 374]  Puccinia triticina                 100

---

- measurement-protocol: log P by HPLC on reversed-phase column (EEC Directive 79/831 Annex V.A8)
- Type: physicochemical
Param threshold (4) applies to logP; output rule met when value >= threshold, rule not met when value < threshold.

>>> df
                                    molecule  classification
 0  CC(CSCc1ccco1)N(C(=O)c1c(C(F)F)nn(C)c1F)C1CC1 (centres unmarked) [Example 236]    rule not met
 1  Cn1nc(C(F)F)c(C(=O)NC(C)(C)CCc2cc(Cl)ccc2Cl)c1Cl [Example 177]        rule met
 2  Cn1nc(C(F)F)c(C(=O)NC(C)(C)CCc2ccc(Cl)cc2Cl)c1Cl [Example 195]        rule met
 3  Cn1nc(C(F)F)c(C(=O)NC2CCCC2Sc2ncccn2)c1F (centres unmarked) [Example 258]    rule not met
 4  Cn1nc(C(F)F)c(C(=O)N(C[Si](C)(C)Cc2cc(Cl)cc(Cl)c2)C2CC2)c1F [Example 293]        rule met
 5  CCCN(CCOc1c(Cl)cc(Cl)cc1Cl)C(=O)c1c(C(F)F)nn(C)c1Cl [Example 205]        rule met
 6  COCCN(CC=Cc1ccccc1)C(=O)c1c(C(F)F)nn(C)c1Cl [Example 265]    rule not met
 7  CN(C(=O)c1c(C(F)F)nn(C)c1Cl)C(COc1ccccc1Cl)C1CC1 (racemic) [Example 146]    rule not met
 8  CCCN(CCOc1ccc(C(=O)OCC)cc1)C(=O)c1c(C(F)F)nn(C)c1Cl [Example 72]    rule not met
 9  Cn1nc(C(F)F)c(C(=S)NC2CCCCC2CCC(C)(C)C)c1Cl (centres unmarked) [Example 356]        rule met
10  CN(CCC(=O)Nc1ccc(Cl)c(Cl)c1)C(=O)c1c(C(F)F)nn(C)c1Cl [Example 233]    rule not met
11  Cn1nc(C(F)F)c(C(=O)NCCOc2cc(Cl)ccc2Cl)c1F [Example 169]    rule not met

---

- measurement-protocol: log P by HPLC on reversed-phase column (EEC Directive 79/831 Annex V.A8)
- Type: physicochemical
- particulars: reversed-phase HPLC column (C18), HPLC, 0.1% aqueous formic acid and acetonitrile, 40° C.; read-out: log P
- Method: In table 1, the log P values were determined in accordance with EEC Directive 79/831 Annex V.A8 by HPLC (High Performance Liquid Chromatography) on a reversed-phase column (C18), using the method described below: Temperature: 40° C.; […]
recorded-endpoint: chromatographic logP

>>> print(df.to_string())
              chem_smiles  experimental_value
0  CC(C)(C)C#Cc1cccc(N)c1                2.71

---

Items are presented alongside their recorded Efficacy.
- Tested on: Fusarium graminearum
- particulars: in vivo
recorded-endpoint: Efficacy (%)

                                   compound  recorded_endpoint  experimental_value
0  CC(CCc1ccccc1C(F)(F)F)N(C(=O)c1c(C(F)F)nn(C)c1F)C1CC1 (stereo not shown) [Example 221]           Efficacy                 100
1  Cn1nc(C(F)F)c(C(=O)N(C2CC2)C2CCCCC2Oc2ccccc2)c1F (stereo not shown) [Example 244]           Efficacy                 100
2  Cn1nc(C(F)F)c(C(=O)N(C[Si](C)(C)Cc2ccccc2)C2CC2)c1F [Example 288]           Efficacy                 100
3  CC(CCc1ccc(Cl)c(Cl)c1)N(C(=O)c1c(C(F)F)nn(C)c1F)C1CC1 (racemic) [Example 129]           Efficacy                 100

---

- measurement-protocol: log P by HPLC on reversed-phase column (EEC Directive 79/831 Annex V.A8)
- Format: physicochemical
recorded-endpoint: logP

>>> df
                                   compound  experimental_value
0  Cn1nc(C(F)F)c(C(=O)N(CC2CCCCC2c2ccc(Cl)cc2Cl)C2CC2)c1F (centres unmarked)                5.31
1  Cn1nc(C(F)F)c(C(=O)NCCS(=O)(=O)c2ccc(Cl)cc2)c1F                2.10
2  Cn1nc(C(F)F)c(C(=O)NC(C)(C)CCc2cccc(Cl)c2)c1F                3.83
3  Cn1nc(C(F)F)c(C(=O)N(CCCC2CCCO2)C2CC2)c1F (centres unmarked)                2.21
4  CC(CNC(=O)c1c(C(F)F)nn(C)c1Cl)Cc1ccc(Cl)c(Cl)c1 (racemic)                3.87

---

- System: Fusarium graminearum
- particulars: in vivo
Items are presented alongside their recorded Efficacy.
recorded-endpoint: Efficacy (%)

In [3]: df
Out[3]:
                                   molecule  recorded_endpoint  experimental_value
0  Cn1nc(C(F)F)c(C(=O)N(CCOc2c(Cl)cccc2Cl)C2CC2)c1F           Efficacy                 100
1  Cn1nc(C(F)F)c(C(=O)N(C2CC2)C2CCCCC2Cc2ccccc2)c1F (mixture of isomers)           Efficacy                 100
2  Cn1nc(C(F)F)c(C(=O)N(CCOc2c(Cl)cccc2Cl)C2CC2)c1Cl           Efficacy                  86
3  CC(COc1ccc(Cl)cc1Cl)N(C(=O)c1c(C(F)F)nn(C)c1F)C1CC1 (centres unmarked)           Efficacy                 100
4  Cn1nc(C(F)F)c(C(=O)N(CC#Cc2ccccc2)C2CC2)c1F           Efficacy                  93

---

- Tested on: Puccinia triticina
- measurement-protocol: In vivo preventive test on Puccinia triticina (wheat)
- particulars: Table K, 500 ppm of active ingredient, evaluated 8 days after inoculation
Items are presented alongside their recorded Efficacy.
recorded-endpoint: Efficacy (%)

                                   compound  units  experimental_value
0  Cn1nc(C(F)F)c(C(=O)N(C[Si](C)(C)Cc2ccccc2)C2CC2)c1F [Example 288]      %                  95
1  CC(CCc1ccc(Cl)c(Cl)c1)N(C(=O)c1c(C(F)F)nn(C)c1F)C1CC1 (racemic) [Example 129]      %                  70
2  CN(CCCc1cc(Cl)ccc1Cl)C(=O)c1c(C(F)F)nn(C)c1Cl [Example 167]      %                  70
3  Cn1nc(C(F)F)c(C(=O)NC2CCCCC2CC[Si](C)(C)C)c1F (centres unmarked) [Example 353]      %                  70
4  Cn1nc(C(F)F)c(C(=O)N(CCOc2c(Cl)cccc2Cl)C2CC2)c1Cl [Example 161]      %                  90
5  Cn1nc(C(F)F)c(C(=O)N(CC2CCCCC2c2ccc(Cl)cc2Cl)C2CC2)c1F (centres unmarked) [Example 242]      %                 100
6  Cn1nc(C(F)F)c(C(=O)N(CC2CCCCC2c2ccccc2Cl)C2CC2)c1F (centres unmarked) [Example 241]      %                 100
7  Cc1cccc(C)c1CCC(C)NC(=O)c1c(C(F)F)nn(C)c1F (centres unmarked) [Example 154]      %                  70
